Listed here: items and their measured AUC25.
Test system: Mycobacterium tuberculosis Erdman (autoluminescent)
experiment-description: AUC25, normalised area under dose response up to IC25 (three-drug combination) (fraction (0-1)); higher = more potent at low dose
applied-conditions: in vitro model: standard 7H9 glycerol; time point: constant = terminal

1) COc1nc2ccc(Br)cc2cc1[C@@H](c1ccccc1)[C@@](O)(CCN(C)C)c1cccc2ccccc12 [bedaquiline] + CC[C@@H](CO)NCCN[C@@H](CC)CO [ethambutol] + NC(=O)c1cnccn1 [pyrazinamide]: 0.0685

Now for the compound whose AUC25 we want.
Incoming: State measured AUC25 of the compound NNC(=O)c1ccncc1 [isoniazid] + CC(=O)NC[C@H]1CN(c2ccc(N3CCOCC3)c(F)c2)C(=O)O1 [linezolid] + COc1c(N2C[C@@H]3CCCN[C@@H]3C2)c(F)cc2c(=O)c(C(=O)O)cn(C3CC3)c12 [moxifloxacin] with Mycobacterium tuberculosis Erdman (autoluminescent).
Outgoing: 0.0712

* * *

Tested on: Mycobacterium tuberculosis Erdman (autoluminescent)
experiment-description: total FIC50 (Loewe) at 50% inhibition, three-drug combination (log2); higher = more antagonistic
applied-conditions: in vitro model: cholesterol-high 0.2 mM; time point: constant (~7 days, model-specific)
endpoint: total FIC50
Simply state the number, no unit and no words.

Incoming: Assign total FIC50 to the following record: COc1nc2ccc(Br)cc2cc1[C@@H](c1ccccc1)[C@@](O)(CCN(C)C)c1cccc2ccccc12 [bedaquiline] + O=[N+]([O-])c1cn2c(n1)OC[C@@H](OCc1ccc(OC(F)(F)F)cc1)C2 [pretomanid] + CO[C@H]1/C=C/O[C@@]2(C)Oc3c(C)c(O)c4c(O)c(c(/C=N/N5CCN(C)CC5)c(O)c4c3C2=O)NC(=O)/C(C)=C\C=C\[C@H](C)[C@H](O)[C@@H](C)[C@@H](O)[C@@H](C)[C@H](OC(C)=O)[C@@H]1C [rifampicin]
Outgoing: 1.22

* * *

Test system: Mycobacterium tuberculosis Erdman (autoluminescent)
experiment-description: FIC90 (Loewe) at 90% inhibition (log2); higher = more antagonistic
applied-conditions: in vitro model: dormancy (butyrate + nitrate, low O2); time point: terminal (~4-5 doublings, model-specific)
# FIC90 >= 0.2 gives Fulfilled, anything below gives Not fulfilled

Solved entries (count: 5):
1) O=[N+]([O-])c1cn2c(n1)OC[C@@H](OCc1ccc(OC(F)(F)F)cc1)C2 [pretomanid] + CO[C@H]1/C=C/O[C@@]2(C)Oc3c(C)c(O)c4c(O)c(c(/C=N/N5CCN(C)CC5)c(O)c4c3C2=O)NC(=O)/C(C)=C\C=C\[C@H](C)[C@H](O)[C@@H](C)[C@@H](O)[C@@H](C)[C@H](OC(C)=O)[C@@H]1C: Fulfilled
2) CC(C)/N=c1\cc2n(-c3ccc(Cl)cc3)c3ccccc3nc-2cc1Nc1ccc(Cl)cc1 [clofazimine] + COc1c(N2C[C@@H]3CCCN[C@@H]3C2)c(F)cc2c(=O)c(C(=O)O)cn(C3CC3)c12: Fulfilled
3) CC(=O)NC[C@H]1CN(c2ccc(N3CCOCC3)c(F)c2)C(=O)O1 [linezolid] + CO[C@H]1/C=C/O[C@@]2(C)Oc3c(C)c(O)c4c(O)c(c(/C=N/N5CCN(C)CC5)c(O)c4c3C2=O)NC(=O)/C(C)=C\C=C\[C@H](C)[C@H](O)[C@@H](C)[C@@H](O)[C@@H](C)[C@H](OC(C)=O)[C@@H]1C [rifampicin]: Not fulfilled
4) NNC(=O)c1ccncc1 [isoniazid] + NC(=O)c1cnccn1 [pyrazinamide]: Not fulfilled
5) COc1nc2ccc(Br)cc2cc1[C@@H](c1ccccc1)[C@@](O)(CCN(C)C)c1cccc2ccccc12 [bedaquiline] + CO[C@H]1/C=C/O[C@@]2(C)Oc3c(C)c(O)c4c(O)c(c(/C=N/N5CCN(C)CC5)c(O)c4c3C2=O)NC(=O)/C(C)=C\C=C\[C@H](C)[C@H](O)[C@@H](C)[C@@H](O)[C@@H](C)[C@H](OC(C)=O)[C@@H]1C [rifampicin]: Fulfilled

From here, focus on the item given below.
Incoming: Kindly determine if FIC90 recorded for NC(=O)c1cnccn1 [pyrazinamide] + CO[C@H]1/C=C/O[C@@]2(C)Oc3c(C)c(O)c4c(O)c(c(/C=N/N5CCN(C)CC5)c(O)c4c3C2=O)NC(=O)/C(C)=C\C=C\[C@H](C)[C@H](O)[C@@H](C)[C@@H](O)[C@@H](C)[C@H](OC(C)=O)[C@@H]1C [rifampicin] is above or exactly 0.2.
Outgoing: Fulfilled
